Biological target: His-tagged KRAS G12D protein (Homo sapiens (Human), UniProt P01116, G12D)
Sequence (P01116 other isoform, or with tags, fused parts or gaps G12D): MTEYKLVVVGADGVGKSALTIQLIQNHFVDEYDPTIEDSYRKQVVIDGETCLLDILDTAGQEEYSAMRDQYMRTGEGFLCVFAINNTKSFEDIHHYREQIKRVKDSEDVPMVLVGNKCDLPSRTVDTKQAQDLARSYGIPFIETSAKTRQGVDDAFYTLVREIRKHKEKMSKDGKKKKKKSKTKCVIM
Assay: KRAS G12D TR-FRET Assay
Type: binding
Conditions: read-out: KRAS G12D Binding IC50
METRIC_NAME: IC50 (nM)

Some compounds with known IC50 results, for comparison:
CN1CCC[C@H]1COc1nc2c3cnc(c(F)c3n1)-c1c(c(Cl)cc3[nH]ncc13)CCCOC(=O)O[C@@H]1CCCCN2C1 :: 6
O=C1N[C@@H]2CN(C[C@@H]3C[C@@H]32)c2nc(OC[C@@]34CCCN3C[C@H](F)C4)nc3c(F)c(ncc23)-c2c(c(Cl)cc3[nH]ncc23)CCC[C@@H]1F :: 5
O=C1OCCc2c(Cl)cc3[nH]ncc3c2-c2ncc3c(nc(OC[C@@]45CCCN4C[C@H](F)C5)nc3c2F)N2CCOC[C@]3(C2)C[C@H](C3)O1 :: 4
CN(C)CC1(COc2nc3c4cc(F)c(c(F)c4n2)-c2c(c(Cl)cc4[nH]ncc24)CCCOC(=O)O[C@@H]2COCCN3C2)CC1 [Example 305] :: 4
Cc1cc2[nH]ncc2c2c1CCCC(=O)OCC1CCCN(C1)c1nc(OC[C@@]34CCCN3C[C@H](F)C4)nc3c(F)c-2ncc13 (stereo partly drawn) :: 7

a. O=C1CCCCc2c(Cl)cccc2-c2ncc3c(nc(OC[C@@]45CCCN4C[C@H](F)C5)nc3c2F)N2CC[C@H]3CCN1[C@H]3C2
b. CN1CCC[C@H]1COc1nc2c3cnc(c(F)c3n1)-c1c(c(Cl)cc3[nH]ncc13)CCOC(=O)O[C@H]1C[C@]3(CCCN2C3)C1 (single isomer, unassigned)
c. O=C1COCCc2c(Cl)cc3[nH]ncc3c2-c2ncc3c(nc(OC[C@@]45CCCN4C[C@H](F)C5)nc3c2F)N2CCCC[C@H](C2)N1
d. Fc1c2ncc3c(nc(OC[C@@]45CCCN4C[C@H](F)C5)nc13)N1CCC[C@H](C1)Oc1nccc(n1)CCc1c(Cl)cc3[nH]ncc3c1-2
e. CO[C@@H]1C[C@@H](COc2nc3c4cnc(c(F)c4n2)-c2c(c(Cl)cc4[nH]ncc24)CCCOC(=O)O[C@]2(C)COCCN3C2)N(C)C1
Asked: Sort the compounds on IC50; start with the lowest figure. Quick reminder: the answer is the labels in the order asked.
Given back: b, e, c, a, d

A. CN1CCC[C@H]1COc1nc2c3cnc(c(F)c3n1)-c1c(c(Cl)cc3[nH]ncc13)CCCOCC(=O)N1CC[C@@H]3CCN2C[C@@H]31
B. Cc1cc2[nH]ncc2c2c1CCC(=O)OCCC1CCCN(C1)c1nc(OC[C@@]34CCCN3C[C@H](F)C4)nc3c(F)c-2ncc13 (mixture of isomers)
Asked: # return whichever of A and B has the smaller IC50 Identify your selection by its label.
Given back: A

====

Target: GDP-bound KRAS protein (aa 1-169), containing both G12D and C118A amino acid substitutions (Homo sapiens (Human), UniProt P01116, C118A/G12D)
Sequence (P01116 other isoform, or with tags, fused parts or gaps G12D/C118A): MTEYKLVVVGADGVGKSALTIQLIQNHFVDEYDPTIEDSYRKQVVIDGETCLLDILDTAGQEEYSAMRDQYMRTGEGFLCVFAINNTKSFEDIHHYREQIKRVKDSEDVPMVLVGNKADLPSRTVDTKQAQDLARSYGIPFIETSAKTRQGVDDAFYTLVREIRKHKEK
Assay: KRAS G12D Coupled Nucleotide Exchange Assay
Format: biochemical
Settings: 2 hours compound pre-incubation; read-out: KRAS G12D Coupled Exchange
METRIC_NAME: IC50 (nM)

A. Fc1c2ncc3c(nc(OC[C@@]45CCCN4C[C@H](F)C5)nc13)N1CCO[C@@H](C1)c1coc(n1)CCCc1c(Cl)cc3[nH]ncc3c1-2 [Example 389]
B. Fc1c2ncc3c(nc(OC[C@@]45CCCN4C[C@H](F)C5)nc13)N1CCC[C@H](C1)Cn1ncc(n1)[C@@H]1C[C@@H]1c1c(Cl)cc3[nH]ncc3c1-2 (mixture of isomers) [Example 383]
C. OC1c2ncc(o2)CCc2c(Cl)cc3[nH]ncc3c2-c2ncc3c(nc(OC[C@@]45CCCN4C[C@H](F)C5)nc3c2F)N2CCO[C@@H]1C2 (stereo in doubt) [Example 395]
Asked: Sort (3 compounds) by IC50: min first. Quick reminder: the answer is the labels in the order asked.
Given back: B, C, A

====

Biological target: His-tagged KRAS G12D protein (Homo sapiens (Human), UniProt P01116, G12D)
Experiment: KRAS G12D TR-FRET Assay
Assay type: binding
Details: read-out: KRAS G12D Binding IC50
METRIC_NAME: IC50 (nM)

CN1C(=O)OCCCc2c(Cl)cc3[nH]ncc3c2-c2ncc3c(nc(OC[C@@]45CCCN4C[C@H](F)C5)nc3c2F)N2C[C@H](O)C[C@H]1C2 :: 1230
Cc1c2ncc3c(nc(OC[C@@]45CCCN4C[C@H](F)C5)nc13)N1CCOC[C@H](C1)OC(=O)OCCCc1c(Cl)cc3[nH]ncc3c1-2 (atropisomer, axis not shown) [Example 342] :: 47
O=C1OCCc2c(F)ccc3cccc(c23)-c2ncc3c(nc(OC[C@@]45CCCN4C[C@H](F)C5)nc3c2F)N2CCOC[C@H](C2)O1 :: 8

A. O=C1OCCCc2c(Cl)cc3[nH]ncc3c2-c2ncc3c(nc(OC[C@@]45CCCN4C[C@@H](F)C5)nc3c2F)N2CCOC[C@H](C2)O1
B. Cc1cc2[nH]ncc2c2c1CCCOC(=O)O[C@@H]1C[C@H](F)CN(C1)c1nc(OC[C@@]34CCCN3C[C@H](F)C4)nc3c(F)c-2ncc13 (racemic)
C. C[C@@]12COCCN(C1)c1nc(OCC34CCCN3CCC4)nc3c(F)c(ncc13)-c1c(c(Cl)cc3[nH]ncc13)CCCOC(=O)O2
Asked: Hey, quick one: sort these by IC50, largest value first please. Quick reminder: the answer is the labels in the order asked.
Given back: B, A, C
(B: 38 nM, A: 10 nM, C: 5 nM)

====

Target: His-tagged KRAS G12D protein (Homo sapiens (Human), UniProt P01116, G12D)
Assay: KRAS G12D TR-FRET Assay
Format: binding
Conditions: read-out: KRAS G12D Binding IC50
pIC50: −log10 of the molar value.
METRIC_NAME: pIC50

Some compounds with known pIC50 results, for comparison:
Cc1cc2[nH]ncc2c2c1CCCCC(=O)N[C@@H]1COCCN(C1)c1nc(OC[C@@]34CCCN3C[C@H](F)C4)nc3c(F)c-2ncc13 :: 7.47
Fc1c2ncc3c(nc(OC[C@@]45CCCN4C[C@H](F)C5)nc13)N1CCCO[C@@H](COCCCCc3c(Cl)cc4[nH]ncc4c3-2)C1 :: 8.30
C[C@@H]1CN(c2nc3c4cnc(c(F)c4n2)-c2c(c(Cl)cc4[nH]ncc24)CCCOC(=O)O[C@@H]2COCCN3C2)CCN1 :: 7.89
CN1C[C@H](F)C[C@H]1COc1nc2c3cnc(c(F)c3n1)-c1cc(O)cc3ccc(F)c(c13)CCCC(=O)N[C@]1(C)CCCN2C1 [Example 5, bis(2,2,2-trifluoroacetate)] :: 9.00

1. CN1CCC[C@H]1COc1nc2c3cnc(c(F)c3n1)-c1c(c(Cl)cc3[nH]ncc13)CCCOC(=O)O[C@@]1(CF)COCCN2C1
2. Cc1cc2[nH]ncc2c2c1[C@@H]1C[C@@H]1CCOC[C@H]1CN(CCO1)c1nc(OC[C@@]34CCCN3C[C@H](F)C4)nc3c(F)c-2ncc13 (single isomer, unassigned)
Asked: Exercise: compare 1 and 2 ; which one has the greater pIC50? Identify your selection by its label.
Given back: 1

====

Target: His-tagged KRAS G12D protein (Homo sapiens (Human), UniProt P01116, G12D)
Test: KRAS G12D TR-FRET Assay
Format: binding
Settings: read-out: KRAS G12D Binding IC50
METRIC_NAME: IC50 (µM)

A. Cc1cc2[nH]ncc2c2c1CCCOC(=O)O[C@@H]1CCCCN(C1)c1nc(OC[C@@]34CCCN3C[C@H](F)C4)nc3c(F)c-2ncc13 [Example 98]
B. Cc1cc2[nH]ncc2c2c1CCCC(=O)OCC1(O)CCCN(C1)c1nc(OC[C@@]34CCCN3C[C@H](F)C4)nc3c(F)c-2ncc13 (mixture of isomers) [Example 103]
C. Cn1ncc2cc(Cl)c3c(c21)-c1ncc2c(nc(OC[C@@]45CCCN4C[C@H](F)C5)nc2c1F)N1CCOC[C@H](C1)OC(=O)OCCC3 [Example 364]
Asked: Sort (3 molecules) by IC50: min first. Quick reminder: the answer is the labels in the order asked.
Given back: A, B, C
(A: 0.004 µM, B: 0.031 µM, C: 0.102 µM)

====

Target: GDP-bound KRAS protein (aa 1-169), containing both G12D and C118A amino acid substitutions (Homo sapiens (Human), UniProt P01116, C118A/G12D)
Assay: KRAS G12D Coupled Nucleotide Exchange Assay
Assay type: biochemical
Details: read-out: KRAS G12D Coupled Exchange IC50
pIC50: −log10 of the molar value.
METRIC_NAME: pIC50

Cc1cc2[nH]ncc2c2c1CCCCC(=O)OC1CN(CC(F)(F)C1)c1nc(OC[C@@]34CCCN3C[C@H](F)C4)nc3c(F)c-2ncc13 (mixture of isomers) [Example 81] :: 6.67

1. O=C1OCC[C@H]2CCc3cc4[nH]ncc4c(c32)-c2ncc3c(nc(OC[C@@]45CCCN4C[C@H](F)C5)nc3c2F)N2CCOC[C@H](C2)O1 [Example 368]
2. Fc1c2ncc3c(nc(OC[C@@]45CCCN4C[C@H](F)C5)nc13)N1CCCC(C1)c1cnn(n1)C/C=C/c1c(Cl)cc3[nH]ncc3c1-2 (stereo partly drawn) [Example 149]
Asked: # return whichever of 1 and 2 has the smaller pIC50 Identify your selection by its label.
Given back: 1
